Every entry's value here was drawn from patent US20090004214A1.

Molecular target: T1, HLA-DRB3 molecule (DRB3*0101) (human)
T1 construct: HLA class II heterodimer
Test: competitive ELISA, tracer LOL 191-210
Parameter measured: pIC50
pIC50 is defined as minus the log10 of a concentration measured in mol/L.

Record excerpt, results attached:
Binder	pIC50
LSVKKQFEELTLGEF (synthetic 15-mer) [survivin peptide 87-101]	5.17
KKQFEELTLGEFLKL (synthetic 15-mer) [survivin peptide 90-104]	4.32
QPFLKDHRISTFKNW (synthetic 15-mer) [survivin peptide 11-25]	5.43

Field: next binder
Input: // pIC50 lookup, key: CAFLSVKKQFEELTL (synthetic 15-mer) [survivin peptide 84-98]
Output: 4.93
